System: SK-OV-3
test_details: Growth inhibition of human SKOV3 cells assessed as cell growth at 10^-7 M by sulforhodamine B assay
Assay type: functional
conditions_used: read-out: Activity
Each entry below lists one item and its recorded growth at 0.1 µM value.
Give your result as the value with the unit written after it.

# count of solved cases: 4
C/C=C(/C)C(=O)O[C@@H]1CC(C)(C)C[C@H]2C3=CC[C@@H]4[C@@]5(C)CC[C@H](O)C(C)(C)[C@@H]5CC[C@@]4(C)[C@]3(C)CC[C@@]12C(=O)O [Reduced Lantadene A]	102%
CC1(C)C[C@@H](O)[C@]2(C(=O)O)CC[C@]3(C)C(=CC[C@@H]4[C@@]5(C)C/C(=C\C=C\c6ccccc6)C(=O)C(C)(C)[C@@H]5CC[C@]43C)[C@@H]2C1	102%
CC(C)=CC(=O)O[C@@H]1CC(C)(C)C[C@H]2C3=CC[C@@H]4[C@@]5(C)CC[C@H](O)C(C)(C)[C@@H]5CC[C@@]4(C)[C@]3(C)CC[C@@]12C(=O)O [Reduced Lantadene B]	103%
CC(C)=CC(=O)O[C@@H]1CC(C)(C)C[C@H]2C3=CC[C@@H]4[C@@]5(C)CCC(=O)C(C)(C)[C@@H]5CC[C@@]4(C)[C@]3(C)CC[C@@]12C(=O)O	106%

Query compound follows.
API: value(readout= growth at 0.1 µM, system= SK-OV-3, query= C/C=C(/C)C(=O)O[C@@H]1CC(C)(C)C[C@H]2C3=CC[C@@H]4[C@@]5(C)CCC(=O)C(C)(C)[C@@H]5CC[C@@]4(C)[C@]3(C)CC[C@@]12C(=O)O [LANTADENE A] ) 114%
